- SYSTEM_TESTED: 4-1BB (coated on ELISA plate) (UniProt Q07011 24-186, limits assumed)
- EXPERIMENT_NOTES: ELISA on coated 4-1BB, supernatant after 45 °C 30 min, OD450
PROPERTY_MEASURED: Binding (45 °C)

The cases that follow already have their Binding (45 °C) on record.
{"BINDER": "5D9 (ligand, also called 4-1BBL variant 5D9 (phagemid clone, bacterial supernatant)) 4-1BBL variant: ACPWAVSGARASPGSAASPRLREGPELSPDDPAGLLDLRQGMFAQLVAQNVLLIDGPLSFYSDPGLAGVSLTGGLSYKEDTKELVVAKAGVYYVFFQLELRRVVAGTGSGSVSLALHLQPLRSAAGAAALALTVDLPPASSEARNSAFGFQGRLLHLSAGQRLGVHLHTEARARHAWQMTQGATVLGLFRVTPEIPAGLPSPRSE", "Binding (45 °C)": 0.205}
{"BINDER": "1D2 (ligand, also called 4-1BBL variant 1D2 (phagemid clone, bacterial supernatant)) 4-1BBL variant: ACPWAVSGARASPGSAASPRLREGPELSPDDPAGLLDLRQGMFAQLVAQNVLLIDGPLSWYEDPGLAGVSLTGGLSYKEDTKELVVAKAGVYYVFFQLELRRVVAGTGSGSVSLALHLQPLRSAAGAAALALTVDLPPASSEARNSAFGFQGRLLHLSAGQRLGVHLHTEARARHALQLTQGATVLGLFRVTPEIPAGLPSPRSE", "Binding (45 °C)": 0.803}
{"BINDER": "4E10 (ligand, also called 4-1BBL variant 4E10 (phagemid clone, bacterial supernatant)) 4-1BBL variant: ACPWAVSGARASPGSAASPRLREGPELSPDDPAGLLDLRQGMFAQLVAQNVLLIDGPLSWYPDPGLAGVSLTGGLSYKEDTKELVVAKAGVYYVFFQLELRRVVAREGSGSVSLALHLQPLRSAAGAAALALTVDLPPASSEARNSAFGFQGRLLHLSAGQRLGVHLHTEARARHAMQLTQGATVLGLFRVTPEIPAGLPSPRSE", "Binding (45 °C)": 1.25}
{"BINDER": "8B10 (ligand, also called 4-1BBL variant 8B10 (phagemid clone, bacterial supernatant)) 4-1BBL variant: ACPWAVSGARASPGSAASPRLREGPELSPDDPAGLLDLRQGMFAQLVAQNVLLIDGPLSWYTDPGLAGVSLTGGLSYKEDTKELVVAKAGVYYVFFQLELRRVVAGMGSGSVSLALHLQPLRSAAGAAALALTVDLPPASSEARNSAFGFQGRLLHLSAGQRLGVHLHTEARARHSWQLTQGATVLGLFRVTPEIPAGLPSPRSE", "Binding (45 °C)": 0.182}
{"BINDER": "8E2 (ligand, also called 4-1BBL variant 8E2 (phagemid clone, bacterial supernatant)) 4-1BBL variant: ACPWAVSGARASPGSAASPRLREGPELSPDDPAGLLDLRQGMFAQLVAQNVLLIDGPLSWYPDPGLAGVSLTGGLSYKEDTKELVVAKAGVYYVFFQLELRRVVAFEGSGSVSLALHLQPLRSAAGAAALALTVDLPPASSEARNSAFGFQGRLLHLSAGQRLGVHLHTEARARHSWQLTQGATVLGLFRVTPEIPAGLPSPRSE", "Binding (45 °C)": 0.309}

Moving on to another binder below.
Task: Endpoint output: Binding (45 °C) of 4C2 (ligand, also called 4-1BBL variant 4C2 (phagemid clone, bacterial supernatant)) 4-1BBL variant: ACPWAVSGARASPGSAASPRLREGPELSPDDPAGLLDLRQGMFAQLVAQNVLLIDGPLSWYPDPGLAGVSLTGGLSYKEDTKELVVAKAGVYYVFFQLELRRVVAGRGSGSVSLALHLQPLRSAAGAAALALTVDLPPASSEARNSAFGFQGRLLHLSAGQRLGVHLHTEARARHAWQFTQGATVLGLFRVTPEIPAGLPSPRSE . Value?
Output: 0.823
